ENDPOINT_LABEL: melting point

COc1ccc(-c2c[nH]cc(C(=O)Nc3ccc4c(c3)NC(=O)/C4=C\c3ccc[nH]3)c2=O)cc1 = > 300 °C
CN(C)c1ccc(C(=O)NC(=O)Nc2ccc3c(c2)NC(=O)/C3=C\c2ccc[nH]2)cc1 = 285 to 290 °C (dec.)
Cc1ccc(N2CCN(C(=O)Nc3ccc4c(c3)NC(=O)/C4=C\c3ccc[nH]3)C2=O)cc1 = > 300 °C
Cc1cc(C)c(/C=C2\C(=O)Nc3cc(NC(=O)c4cccn(-c5ccc(F)cc5)c4=O)ccc32)[nH]1 = > 300 °C
Cc1[nH]c(/C=C2\C(=O)Nc3cc(NC(=O)NC(=O)c4ccc(F)cc4)ccc32)c(C)c1CCC(=O)O = > 300 °C

*Q* Which value of melting point has been reported for `Cc1[nH]c(/C=C2\C(=O)Nc3cc(NC(=O)c4c[nH]cc(-c5ccc(F)cc5)c4=O)ccc32)c(C)c1CCC(=O)N1CCN(C)CC1` in the records?
*A* 250 °C

*Q* Which value of melting point has been reported for `Cc1[nH]c(/C=C2\C(=O)Nc3cc(NC(=O)NC(=O)c4ccccc4F)ccc32)c(C)c1CCC(=O)O` in the records?
*A* 267 to 272 °C (dec.)

*Q* Which value of melting point has been reported for `COc1ccc(C(=O)NC(=O)Nc2cc3c(cc2F)/C(=C/c2[nH]c(C)c(CC(=O)O)c2C)C(=O)N3)cc1` in the records?
*A* 292 to 297 °C (dec.)

*Q* Which value of melting point has been reported for `COc1ccc(-c2c[nH]cc(C(=O)Nc3ccc4c(c3)NC(=O)/C4=C\c3[nH]c(C)c(C(=O)NCCN4CCCC4)c3C)c2=O)cc1` in the records?
*A* > 300 °C

*Q* Which value of melting point has been reported for `O=C1Nc2cc(NC(=O)c3c[nH]cc(-c4cc(F)cc(F)c4)c3=O)ccc2/C1=C/c1ccc[nH]1` in the records?
*A* > 300 °C

*Q* Which value of melting point has been reported for `O=C1Nc2cc(NC(=O)c3cccn(-c4ccc(C(F)(F)F)cc4)c3=O)ccc2/C1=C/c1ccc[nH]1` in the records?
*A* > 300 °C

*Q* Which value of melting point has been reported for `Cc1[nH]c(/C=C2\C(=O)Nc3cc(NC(=O)c4cccn(-c5ccc(F)cc5)c4=O)ccc32)c(C)c1CCC(=O)O` in the records?
*A* > 300 °C
